Measured IC50 on Vascular endothelial growth factor receptor 2 (Homo sapiens) follows.
Sequence (P35968 whole entry): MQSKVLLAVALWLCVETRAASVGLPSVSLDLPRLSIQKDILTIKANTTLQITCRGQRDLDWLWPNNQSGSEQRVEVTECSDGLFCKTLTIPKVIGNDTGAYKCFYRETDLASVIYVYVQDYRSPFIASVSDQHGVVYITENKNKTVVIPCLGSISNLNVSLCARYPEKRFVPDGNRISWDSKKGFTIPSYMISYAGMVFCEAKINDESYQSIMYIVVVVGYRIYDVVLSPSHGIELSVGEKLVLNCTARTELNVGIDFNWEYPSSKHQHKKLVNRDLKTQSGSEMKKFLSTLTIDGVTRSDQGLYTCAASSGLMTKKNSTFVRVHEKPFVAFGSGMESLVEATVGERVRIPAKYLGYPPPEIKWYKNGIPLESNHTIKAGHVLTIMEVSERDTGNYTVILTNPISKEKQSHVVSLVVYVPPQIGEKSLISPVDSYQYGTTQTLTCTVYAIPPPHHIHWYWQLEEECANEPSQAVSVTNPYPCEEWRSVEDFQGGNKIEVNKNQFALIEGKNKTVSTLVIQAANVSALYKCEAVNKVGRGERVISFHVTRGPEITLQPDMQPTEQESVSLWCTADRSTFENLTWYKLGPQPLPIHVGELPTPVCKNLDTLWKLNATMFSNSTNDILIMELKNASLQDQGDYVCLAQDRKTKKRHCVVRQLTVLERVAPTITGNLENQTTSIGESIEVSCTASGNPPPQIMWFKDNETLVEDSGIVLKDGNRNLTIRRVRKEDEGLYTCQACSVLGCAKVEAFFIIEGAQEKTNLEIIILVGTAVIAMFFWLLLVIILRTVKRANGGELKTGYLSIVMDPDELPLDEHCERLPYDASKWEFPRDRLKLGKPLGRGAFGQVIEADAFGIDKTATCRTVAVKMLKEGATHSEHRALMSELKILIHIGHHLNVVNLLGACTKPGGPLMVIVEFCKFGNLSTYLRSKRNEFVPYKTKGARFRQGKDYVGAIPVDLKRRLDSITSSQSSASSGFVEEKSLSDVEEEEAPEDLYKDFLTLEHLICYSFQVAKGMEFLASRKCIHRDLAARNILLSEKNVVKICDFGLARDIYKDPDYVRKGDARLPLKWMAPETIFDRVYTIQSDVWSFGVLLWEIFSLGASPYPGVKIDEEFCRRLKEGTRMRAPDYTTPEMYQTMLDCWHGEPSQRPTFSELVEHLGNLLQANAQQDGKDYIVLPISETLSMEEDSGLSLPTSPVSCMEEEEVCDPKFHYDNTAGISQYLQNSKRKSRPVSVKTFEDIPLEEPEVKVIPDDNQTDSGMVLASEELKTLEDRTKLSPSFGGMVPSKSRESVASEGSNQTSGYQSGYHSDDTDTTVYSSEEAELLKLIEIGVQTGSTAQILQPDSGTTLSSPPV

// solved cases for IC50 follow
{"columns": ["chem.smiles", "IC50"],
 "data": [
  ["CCNS(=O)(=O)c1ccccc1Nc1ncnc(Nc2ccc(N3CCN(C)CC3)c(OCCOCCOC)c2)n1", "550 nM"],
  ["CCNS(=O)(=O)c1ccccc1Nc1ncnc(Nc2ccc(N3CCN(C)CC3)c(OCC(=O)OCC)c2)n1", "316 nM"],
  ["CCNS(=O)(=O)c1ccccc1Nc1ncnc(Nc2ccc(N3CCN(C)CC3)c(OCCCN3CCOCC3)c2)n1", "736 nM"]
]}

Input line: // IC50 lookup, key: CCNS(=O)(=O)c1ccccc1Nc1nc(Nc2ccc(N3CCC(N4CCN(C)CC4)CC3)c(OC)c2)ncc1NC(=O)c1cc(OC)cc(OC)c1
Output line: > 1000 nM

Input line: // IC50 lookup, key: CCNS(=O)(=O)c1ccccc1Nc1ncnc(Nc2ccc(N3CCN(C)CC3)c(OC)c2)n1
Output line: 341 nM

Input line: // IC50 lookup, key: CCNS(=O)(=O)c1ccccc1Nc1nc(Nc2ccc(N3CCC(N4CCN(C)CC4)CC3)c(OC)c2)ncc1Cc1cc(OC)cc(OC)c1
Output line: > 1000 nM

Input line: // IC50 lookup, key: CCNS(=O)(=O)c1ccccc1Nc1nc(Nc2ccc(N3CCC(N4CCN(C)CC4)CC3)c(OC)c2)ncc1NC(=O)c1cc(C)cc(C)c1
Output line: 554 nM

Input line: // IC50 lookup, key: CCNS(=O)(=O)c1ccccc1Nc1nc(Nc2ccc(N3CCC(N4CCN(C)CC4)CC3)c(OC)c2)ncc1NC(=O)c1cccc(OC)c1OC
Output line: 461 nM

Input line: // IC50 lookup, key: CCNS(=O)(=O)c1ccccc1Nc1ncnc(Nc2ccc(N3CCC(N4CCN(C)CC4)CC3)c(OC)c2)n1
Output line: 266 nM

Input line: // IC50 lookup, key: CCNS(=O)(=O)c1ccccc1Nc1ncnc(Nc2ccc(N3CCN(C)CC3)c(OCC(=O)O)c2)n1
Output line: 120 nM

Input line: // IC50 lookup, key: CCNS(=O)(=O)c1ccccc1Nc1nc(Nc2ccc(N3CCC(N4CCN(C)CC4)CC3)c(OC)c2)ncc1NC(=O)c1nc(OC)cc(OC)n1
Output line: 131 nM

Source of measurements: ChEMBL document CHEMBL4627366
